Kindly state self-cleavage for each of the entries shown.
B1: HDV Ribozyme (parent)
chain: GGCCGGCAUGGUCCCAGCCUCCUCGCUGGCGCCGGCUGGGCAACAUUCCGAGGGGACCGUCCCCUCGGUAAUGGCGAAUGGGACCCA

- Variants of: B1
- experiment.description: self-cleavage, relative activity (ratio to wild type); higher = more cleavage; co-transcriptional
Numbers only.

[[record]]
mutation_notation = "A71G A78G"
measured_value = 0.772

[[record]]
mutation_notation = "C3A U60A"
measured_value = 0.611

[[record]]
mutation_notation = "U12G A42G"
measured_value = 0.369

[[record]]
mutation_notation = "C32U U69G"
measured_value = 0.852

[[record]]
mutation_notation = "A56C C57A"
measured_value = 1.22


// for each variant in input: emit self-cleavage
1. A56U G80C
2. G55A G82C
3. C62A U79G
4. U12C G76C
5. G29C C85A

a:
0.22
0.356
0.862
0.364
0.104

q: Identify the reported self-cleavage for the following entry. G80U C84A
a: 0.652
